- target: T1, Acro SARS-CoV-2 (COVID-19) S1 protein (SARS-CoV-2, UniProt P0DTC2 16-685)
- T1 construct: also called SARS-CoV-2 S1
- method.summary: SPR
pKd: −log10 of the molar value.
recorded.endpoint: pKd

>>> assay_value("variant 6-76 (Fc fusion) VHH: EVQLVESGGGLVQPGGSLRLSCAASGLAFDFDGMGWFRQAPGKEREGVAAINSGGSTYYADSVKGRFTISADNSKNTAYLQMNSLKPEDTAVYYCARFFRAHDYWGQGTLVTVSS")
7.47
>>> assay_value("variant 6-24 (Fc fusion) VHH: EVQLVESGGGLVQPGGSLRLSCAASGFTLDYYAMGWFRQAPGKEREFVAAINWSGDNTHYADSVKGRFTISADNSKNTAYLQMNSLKPEDTAVYYCARAPFYCTTTKCQDNYYYMDVWGQGTLVTVSS")
7.52
>>> assay_value("variant 6-77 (Fc fusion) VHH: EVQLVESGGGLVQPGGSLRLSCAASGFTFDRSWMGWFRQAPGKEREFVAAVTEGGTTSYADSVKGRFTISADNSKNTAYLQMNSLKPEDTAVYYCARADYDFDYWGQGTLVTVSS")
7.61
>>> assay_value("variant 6-18 (Fc fusion) VHH: EVQLVESGGGLVQPGGSLRLSCAASGLTFRNYAMGWFRQAPGKEREFIAGMMWSGGTTTYADSVKGRFTISADNSKNTAYLQMNSLKPEDTAVYYCAREGYYYDSSGYLNYFDYWGQGTLVTVSS")
7.52
